Organism: Bos taurus
Assay: Inhibition of calf thymus DNA topoisomerase 1-mediated relaxation of supercoiled pBR322 DNA at 20 uM after 30 mins by agarose gel electrophoresis analysis
Each entry gets no (0) if its inhibition stays under 5%, and yes (1) if its inhibition is 5% or above.

Use the examples below as a reference point.
smiles: CC[C@@]1(O)C(=O)OCc2c1cc1n(c2=O)Cc2cc3ccccc3nc2-1
class.assignment: yes (1)
--
smiles: O=C1c2c(ccc3ccccc23)-n2c1nc1cc3ccccc3cc1c2=O
class.assignment: no (0)
--
smiles: O=C1c2cc3ccccc3cc2-n2c1nc1ccccc1c2=O
class.assignment: yes (1)
--
smiles: O=C1c2ccc3ccccc3c2-n2c1nc1ccccc1c2=O
class.assignment: no (0)
--
smiles: O=C1c2ccccc2-n2c1nc1ccccc1c2=O
class.assignment: no (0)

Problem: Item O=C1c2ccc3ccccc3c2-n2c1nc1cc3ccccc3cc1c2=O with inhibition of 5% or above?
Result: no (0)

Problem: Try this compound too: O=C1c2cc3ccccc3cc2-n2c1nc1cc3ccccc3cc1c2=O
Result: no (0)

###

Test system: HCT-15
Experiment: Cytotoxicity against human HCT15 cells after 72 hrs by MTT assay
Format: functional, cell-based
Settings: HCT-15, 72 h
recorded.endpoint: pIC50
The read-out pIC50 is expressed as -log10 of concentration in moles per litre.

molecule: O=C1c2ccc3ccccc3c2-n2c1nc1cc3ccccc3cc1c2=O
pIC50: 4.62

molecule: O=C1c2cc3ccccc3cc2-n2c1nc1ccccc1c2=O
pIC50: 5.21

Problem: State the recorded pIC50 for this entry: COc1cccc2c1C(=O)c1c(O)c3c(c(O)c1C2=O)C[C@@](O)(C(=O)CO)C[C@@H]3O[C@H]1C[C@H](N)[C@H](O)[C@H](C)O1
Result: 5.75

Problem: Try this molecule too: O=C1c2cc3ccccc3cc2-n2c1nc1cc3ccccc3cc1c2=O
Result: 4.58

Problem: Try this molecule too: CC[C@@]1(O)C(=O)OCc2c1cc1n(c2=O)Cc2cc3ccccc3nc2-1
Result: 5.00

Problem: Try this molecule too: COc1cc([C@@H]2c3cc4c(cc3[C@@H](O[C@@H]3O[C@@H]5CO[C@@H](C)O[C@H]5[C@H](O)[C@H]3O)[C@H]3COC(=O)[C@H]23)OCO4)cc(OC)c1O [ETOPOSIDE]
Result: 6.55

Problem: Try this molecule too: O=C1c2ccccc2-n2c1nc1cc3ccccc3cc1c2=O [BENZO[K]TRYPTANTHRIN]
Result: 4.59

Problem: Try this molecule too: O=C1c2c(ccc3ccccc23)-n2c1nc1cc3ccccc3cc1c2=O
Result: 4.48

###

The reader will find reported inhibition values listed item by item below.
Species on record: Bos taurus
Assay: Inhibition of calf thymus DNA topoisomerase 1-mediated relaxation of supercoiled pBR322 DNA at 100 uM after 30 mins by agarose gel electrophoresis analysis
Please reply with the bare figure in % and do not write the unit itself.

compound: O=C1c2ccc3ccccc3c2-n2c1nc1cc3ccccc3cc1c2=O
inhibition [%]: 84.1
//
compound: O=C1c2c(ccc3ccccc23)-n2c1nc1ccccc1c2=O
inhibition [%]: 47.8
//
compound: CC[C@@]1(O)C(=O)OCc2c1cc1n(c2=O)Cc2cc3ccccc3nc2-1 [CAMPTOTHECIN]
inhibition [%]: 63.1
//
compound: O=C1c2ccccc2-n2c1nc1cc3ccccc3cc1c2=O [BENZO[K]TRYPTANTHRIN]
inhibition [%]: 18.8

Problem: State the recorded inhibition for this entry: O=C1c2cc3ccccc3cc2-n2c1nc1ccccc1c2=O
Result: 69.6

Problem: Try this compound too: O=C1c2c(ccc3ccccc23)-n2c1nc1cc3ccccc3cc1c2=O
Result: 39.1

Problem: Try this compound too: O=C1c2ccc3ccccc3c2-n2c1nc1ccccc1c2=O
Result: 53.4

Problem: Try this compound too: O=C1c2cc3ccccc3cc2-n2c1nc1cc3ccccc3cc1c2=O
Result: 41.9

Problem: Try this compound too: O=C1c2ccccc2-n2c1nc1ccccc1c2=O [TRYPTANTHRIN]
Result: 68.4
